# Assayed Target: Ba/F3 cell EGFR Exon20 ins NPH (Homo sapiens, UniProt P00533, INS773NPH)
# Construct: expressed in transfected cells; host or cells: Ba/F3
# Assay Details: Ba/F3 cell proliferation suppression, EGFR Exon20 ins NPH
# Assay type: cell-based
# Test Settings: GI50 class; Ba/F3 cell line with NPH inserted at Exon20 of EGFR; 72 hours
Measured Attribute: Ba/F3 (NPH) Activity

- C=CC(=O)Nc1cc(Nc2cc(N3OCC[C@@H]3c3ccc(F)cc3F)ncn2)c(OC)cc1N1CCC(N2CCN(C3CCCC3)CC2)CC1: A (GI50 < 50 nM)
- C=CC(=O)Nc1cc(Nc2cc(N3OCC[C@@H]3c3cccc(F)c3)ncn2)c(OC)cc1N1CCC(N2CCN(C(C)=O)CC2)CC1: A (GI50 < 50 nM)
- C=CC(=O)Nc1cc(Nc2cc(N3OCC[C@@H]3c3ccc(F)c(Cl)c3)ncn2)c(OC)cc1N1CCN(C2CC2)CC1: A (GI50 < 50 nM)
- C=CC(=O)Nc1cc(Nc2cc(N3OCC[C@@H]3c3ccc(F)cc3F)ncn2)c(OC)cc1N1CCC(N(C)C)CC1: A (GI50 < 50 nM)

---

# Assayed Target: Ba/F3 cell EGFR Exon20 ins NPH (Homo sapiens, UniProt P00533, INS773NPH)
# Construct: expressed in transfected cells; host or cells: Ba/F3
# Assay Details: Ba/F3 cell proliferation suppression, EGFR Exon20 ins NPH
# Format: cell-based
# Test Settings: GI50 class; Ba/F3 cell line with NPH inserted at Exon20 of EGFR; 72 hours
Measured Attribute: Ba/F3 (NPH) Activity

The examples below pair each entry with its known result.
* C=CC(=O)Nc1cc(Nc2cc(N3OCC[C@@H]3c3cc(F)cc(F)c3)ncn2)c(OC)cc1N1CCC(N2CCN(C)C[C@@H]2C)CC1 | A (GI50 < 50 nM)
* C=CC(=O)Nc1cc(Nc2cc(N3OCC[C@@H]3c3cccc(F)c3Cl)ncn2)c(OC)cc1N1CCC(N2CCN(CC)CC2)CC1 | A (GI50 < 50 nM)
* C=CC(=O)Nc1cc(Nc2cc(N3OCC[C@@H]3c3ccc(Cl)c(Cl)c3)ncn2)c(OC)cc1N1C[C@H]2C[C@@H]1CO2 | A (GI50 < 50 nM)
* C=CC(=O)Nc1cc(Nc2cc(N3OCC[C@@H]3c3cc(F)cc(F)c3)ncn2)c(OC)cc1N1CCC(N2CC[C@@H](N(C)C)C2)CC1 | A (GI50 < 50 nM)
* C=CC(=O)Nc1cc(Nc2cc(N3OCC[C@@H]3c3ccccc3)ncn2)c(OC)cc1N(C)CCN(C)C | A (GI50 < 50 nM)

Request: Consider the compound shown here: C=CC(=O)Nc1cc(Nc2cc(N3OCC[C@@H]3c3cccc(F)c3Cl)ncn2)c(OC)cc1N1CCC(N2CCN(C3CC3)C[C@H]2C)CC1 What is its recorded Ba/F3 (NPH) Activity?
Response: A (GI50 < 50 nM)

Request: Ba/F3 (NPH) Activity lookup needed for C=CC(=O)Nc1cc(Nc2cc(N3OCC[C@@H]3c3cccc(Cl)c3C)ncn2)c(OC)cc1N1CCC(N2CCN(C3CC3)[C@H](C)C2)CC1 , thanks.
Response: A (GI50 < 50 nM)

Request: Need Ba/F3 (NPH) Activity, item C=CC(=O)Nc1cc(Nc2cc(N3OCC[C@@H]3Cc3cccc(Cl)c3Cl)ncn2)c(OC)cc1N1CCC(N2C[C@@H]3C[C@H]2CO3)CC1
Response: A (GI50 < 50 nM)

Request: Which Ba/F3 (NPH) Activity reading was recorded for the compound C=CC(=O)Nc1cc(Nc2cc(N3OCC[C@@H]3c3ccc(F)c(F)c3)ncn2)c(OC)cc1N1CC[C@@H](N(C)C)C1 ?
Response: A (GI50 < 50 nM)

Request: Any idea what Ba/F3 (NPH) Activity was measured for C#Cc1cccc([C@H]2CCON2c2cc(Nc3cc(NC(=O)C=C)c(N4CCC(N5C[C@@H](C)O[C@@H](C)C5)CC4)cc3OC)ncn2)c1 ?
Response: A (GI50 < 50 nM)

---

# Assayed Target: Ba/F3 cell EGFR Exon20 ins NPH (Homo sapiens, UniProt P00533, INS773NPH)
# Construct: expressed in transfected cells; host or cells: Ba/F3
# Assay Details: Ba/F3 cell proliferation suppression, EGFR Exon20 ins NPH
# Type: cell-based
# Test Settings: GI50 class; Ba/F3 cell line with NPH inserted at Exon20 of EGFR; 72 hours
Measured Attribute: Ba/F3 (NPH) Activity

Illustrative cases are given below, each with its answer.
* C=CC(=O)Nc1cc(Nc2cc(N3OCC[C@@H]3c3c(F)ccc(F)c3F)ncn2)c(OC)cc1N1CCC(N2C[C@@H]3C[C@H]2CO3)CC1 | A (GI50 < 50 nM)
* C=CC(=O)Nc1cc(Nc2cc(N3OCC[C@@H]3c3cccc(Cl)c3F)ncn2)c(OC)cc1N1CCC(N2C[C@H](C)N(C3CC3)C[C@@H]2C)CC1 | A (GI50 < 50 nM)
* C=CC(=O)Nc1cc(Nc2cc(N3OCC[C@@H]3c3cccc(Cl)c3Cl)ncn2)c(OC)cc1N1CCOCC1 | A (GI50 < 50 nM)
* C=CC(=O)Nc1cc(Nc2cc(N3OCC[C@@H]3c3c(F)ccc(F)c3Cl)ncn2)c(OC)cc1N1CCC(N2CCN(C3CC3)[C@H](C)C2)CC1 | A (GI50 < 50 nM)
* C=CC(=O)Nc1cc(Nc2cc(N3OCC[C@@H]3c3cc(F)cc(F)c3)ncn2)c(OC)cc1N1CCC(N2CCOC[C@H]2C)CC1 | A (GI50 < 50 nM)
* C=CC(=O)Nc1cc(Nc2cc(N3OCC[C@@H]3c3cccc(Cl)c3F)ncn2)c(OC)cc1N1CCC(N2CCOCC2)CC1 | A (GI50 < 50 nM)
* C=CC(=O)Nc1cc(Nc2cc(N3OCC[C@@H]3c3ccc(Cl)cc3F)ncn2)c(OC)cc1N1CC[C@@H](N(C)C)C1 | A (GI50 < 50 nM)
* C=CC(=O)Nc1cc(Nc2cc(N3OCC[C@@H]3c3ccc(F)cc3F)ncn2)c(OC)cc1N1CCN(C2CCN(C)CC2)CC1 | A (GI50 < 50 nM)
* C=CC(=O)Nc1cc(Nc2cc(N3OCC[C@@H]3c3ccc(Cl)c(F)c3)ncn2)c(OC)cc1N1CCC(N2CCN(C3CCC3)CC2)CC1 | A (GI50 < 50 nM)

Turning now to a further compound:
Request: Value lookup for Ba/F3 (NPH) Activity; key = C=CC(=O)Nc1cc(Nc2cc(N3OCC[C@@H]3c3ccc(F)cc3)ncn2)c(OC)cc1N1CCC(N2C[C@@H]3C[C@H]2CO3)CC1
Response: A (GI50 < 50 nM)

---

# Assayed Target: Ba/F3 cell EGFR Exon20 ins NPH (Homo sapiens, UniProt P00533, INS773NPH)
# Construct: expressed in transfected cells; host or cells: Ba/F3
# Assay Details: Ba/F3 cell proliferation suppression, EGFR Exon20 ins NPH
# Assay type: cell-based
# Test Settings: GI50 class; Ba/F3 cell line with NPH inserted at Exon20 of EGFR; 72 hours
Measured Attribute: Ba/F3 (NPH) Activity

• C=CC(=O)Nc1cc(Nc2cc(N3OCC[C@@H]3c3ccc(Cl)c(F)c3)ncn2)c(OC)cc1N1C[C@@H]2C[C@H]1CO2 = A (GI50 < 50 nM)
• C=CC(=O)Nc1cc(Nc2cc(N3OCC[C@@H]3c3cccc(F)c3F)ncn2)c(OC)cc1N1CCC(N2CCN(C)CC2)CC1 = A (GI50 < 50 nM)
• C=CC(=O)Nc1cc(Nc2cc(N3OCC[C@@H]3c3ccc(F)c(Cl)c3)ncn2)c(OC)cc1N1CCC(N2C[C@H]3C[C@@H]2CO3)CC1 = A (GI50 < 50 nM)
• C=CC(=O)Nc1cc(Nc2cc(N3OCC[C@@H]3c3ccc(F)cc3F)ncn2)c(OC)cc1N1CCC(N2CCN(CC3CC3)CC2)CC1 = A (GI50 < 50 nM)

Request: Entry C=CC(=O)Nc1cc(Nc2cc(N3OCC[C@@H]3c3ccc(F)c(Cl)c3)ncn2)c(OC)cc1N1CCC(N2CCN(C3CC3)C(C)(C)C2)CC1 : reported Ba/F3 (NPH) Activity = ?
Response: A (GI50 < 50 nM)

Request: I'd like to know its Ba/F3 (NPH) Activity. The compound in question is C=CC(=O)Nc1cc(Nc2cc(N3OCC[C@@H]3c3cc(F)cc(F)c3)ncn2)c(OC)cc1N1CCC(N2C[C@@H]3C[C@H]2CO3)CC1
Response: A (GI50 < 50 nM)

Request: # Ba/F3 (NPH) Activity lookup, item C=CC(=O)Nc1cc(Nc2cc(N3OCC[C@@H]3c3ccc(F)c(F)c3)ncn2)c(OC)cc1N1CCC(N2CCN(C(C)C)CC2)CC1
Response: A (GI50 < 50 nM)
